What follows is a collection of IC50 values obtained with TIPARP GST-(TEV) (Homo sapiens (Human)).
Sequence (Q7Z3E1 441-657): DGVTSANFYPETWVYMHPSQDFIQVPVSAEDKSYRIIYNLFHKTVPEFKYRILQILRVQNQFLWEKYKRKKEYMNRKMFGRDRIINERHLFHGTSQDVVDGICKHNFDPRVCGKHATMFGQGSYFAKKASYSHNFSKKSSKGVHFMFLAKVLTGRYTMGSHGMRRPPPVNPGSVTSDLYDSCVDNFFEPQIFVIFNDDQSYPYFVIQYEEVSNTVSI
metric: IC50 (nM)

INSERT INTO measurements (sample_smiles, system, metric, reported_result) VALUES
  ('C[C@@H]1CN(c2ncc(C(F)(F)F)cn2)CCN1C(=O)[C@H]1C[C@H](c2c[nH]c(=O)c(C(F)(F)F)c2)C1', 'TIPARP GST-(TEV) (Homo sapiens (Human))', 'IC50', 2000),
  ('C[C@@H]1CN(C(=O)[C@H]2C[C@@H](Cc3c[nH]c(=O)c(C(F)(F)F)c3)C2)C[C@H](C)N1c1ncc(C(C)(C)O)cn1', 'TIPARP GST-(TEV) (Homo sapiens (Human))', 'IC50', 2.8),
  ('C[C@@H]1CN(C(=O)[C@H]2C[C@@H](c3c[nH]c(=O)c(C(F)(F)F)c3)C2)CCN1c1ncc(C(F)(F)F)cn1', 'TIPARP GST-(TEV) (Homo sapiens (Human))', 'IC50', 4.74);
